Data origin: ChEMBL document CHEMBL1133184

pIC50 values recorded for Acetylcholinesterase (Homo sapiens, UniProt P22303)
# log scale: pIC50 equals minus log10 of the concentration in mol/L

Examples from the recorded data:
item_smiles=CCCCCCCNc1c2c(nc3cc(Cl)ccc13)CCCC2 assay_target="Acetylcholinesterase (Homo sapiens, UniProt P22303)" experimental_result=7.89
item_smiles=Cc1ccc2c(N)c3c(nc2c1)CCCC3 assay_target="Acetylcholinesterase (Homo sapiens, UniProt P22303)" experimental_result=7.00
item_smiles=Nc1c2c(nc3ccc([N+](=O)[O-])cc13)CCCC2 assay_target="Acetylcholinesterase (Homo sapiens, UniProt P22303)" experimental_result=5.52
item_smiles=O=[N+]([O-])c1ccc2nc3c(c(NCc4ccccc4)c2c1)CCCC3 assay_target="Acetylcholinesterase (Homo sapiens, UniProt P22303)" experimental_result=5.80
item_smiles=O=[N+]([O-])c1ccc2c(NCc3ccccc3)c3c(nc2c1)CCCC3 assay_target="Acetylcholinesterase (Homo sapiens, UniProt P22303)" experimental_result=5.32

Value of measured pIC50 for the entry `Cc1ccc2c(NCc3ccccc3)c3c(nc2c1)CCCC3` : 6.12

Value of measured pIC50 for the entry `COc1cc2nc3c(c(N)c2cc1OC)CCCC3` : 5.28

Value of measured pIC50 for the entry `CCCCCCCNc1c2c(nc3ccc(C)cc13)CCCC2` : 6.41

Value of measured pIC50 for the entry `COc1ccc2c(N)c3c(nc2c1)CCCC3` : 6.46

Value of measured pIC50 for the entry `Nc1ccc2nc3c(c(N)c2c1)CCCC3` : 5.42

Value of measured pIC50 for the entry `Nc1c2c(nc3cc(Br)ccc13)CCCC2` : 7.18

Value of measured pIC50 for the entry `CCCCCCCNc1c2c(nc3cc(OC)ccc13)CCCC2` : 6.34

Value of measured pIC50 for the entry `CCCCCCCNc1c2c(nc3cc([N+](=O)[O-])ccc13)CCCC2` : 6.54

Value of measured pIC50 for the entry `CCCCCCCNc1c2c(nc3cc(C)ccc13)CCCC2` : 6.89

Value of measured pIC50 for the entry `Cc1ccc2nc3c(c(NCc4ccccc4)c2c1)CCCC3` : 5.43

Value of measured pIC50 for the entry `Nc1c2c(nc3ccc(Cl)cc13)CCCC2` : 6.26

Value of measured pIC50 for the entry `Nc1c2c(nc3cc(Cl)c(Cl)cc13)CCCC2` : 6.33

Value of measured pIC50 for the entry `Cc1ccc2nc3c(c(N)c2c1)CCCC3` : 5.09

Value of measured pIC50 for the entry `Clc1ccc2c(NCc3ccccc3)c3c(nc2c1)CCCC3` : 6.77

Value of measured pIC50 for the entry `CCCCCCCNc1c2c(nc3cc(F)ccc13)CCCC2` : 7.35

Value of measured pIC50 for the entry `Nc1c2c(nc3cc(F)ccc13)CCCC2` : 7.06
